Items are presented alongside their recorded IC50.
Test system: RT-112
Procedure details: Cellular Proliferation Assay (Cell Counting Kit-8), RT-112
Assay type: cell-based
Condition description: Homo sapiens, RT-112 cells, 72 hours
# number only, unit nM dropped from output

[[record]]
compound = "CNC(=O)c1cc(COc2cnc(Nc3ccc(N4CCNC(C)(C)C4)cc3)nc2)c(F)c(OC)c1 [Compound 193]"
unit_abbrev = "nM"
readout_number = 21

[[record]]
compound = "CONC(=O)c1cc(CCc2cnc(Nc3ccc(N4C[C@@H](C)N[C@@H](C)C4)c(C)c3)nc2)cc(OC)c1 [Compound 49]"
unit_abbrev = "nM"
readout_number = 62

[[record]]
compound = "CNC(=O)c1cc(COc2cnc(Nc3ccc(O)cc3)nc2)c(F)c(OC)c1 [Compound 211]"
unit_abbrev = "nM"
readout_number = 163

[[record]]
compound = "CNC(=O)c1cc(CCc2cnc(Nc3ccc4nnc(C)n4c3)nc2)c(F)c(OC)c1 [Compound 69]"
unit_abbrev = "nM"
readout_number = 337

[[record]]
compound = "CNC(=O)c1cc(CCc2cnc(Nc3cnn(CCN4CCN(C)CC4)c3)nc2)c(F)c(OC)c1 [Compound 45]"
unit_abbrev = "nM"
readout_number = 94


Problem: What value of measured IC50 is listed for CCN(CC)CCn1cc(Nc2ncc(CCc3cc(C(=O)NC)cc(OC)c3F)cn2)cn1 [Compound 136] ?
Solution: 37

Problem: Same again, this time with CNC(=O)c1cc(CCc2cnc(Nc3cnn(C4CCCC4)c3)nc2)c(F)c(OC)c1 [Compound 122]
Solution: 67

Problem: CNC(=O)c1cc(CCc2cnc(Nc3cnn(CC(=O)N4CCCC4)c3)nc2)c(F)c(OC)c1 [Compound 143] , same question.
Solution: 991

* * *

# pIC50 annotations
Measurement target: Recombinant human FGFR2 (Homo sapiens, UniProt P21802)
Sequence (P21802 22-821): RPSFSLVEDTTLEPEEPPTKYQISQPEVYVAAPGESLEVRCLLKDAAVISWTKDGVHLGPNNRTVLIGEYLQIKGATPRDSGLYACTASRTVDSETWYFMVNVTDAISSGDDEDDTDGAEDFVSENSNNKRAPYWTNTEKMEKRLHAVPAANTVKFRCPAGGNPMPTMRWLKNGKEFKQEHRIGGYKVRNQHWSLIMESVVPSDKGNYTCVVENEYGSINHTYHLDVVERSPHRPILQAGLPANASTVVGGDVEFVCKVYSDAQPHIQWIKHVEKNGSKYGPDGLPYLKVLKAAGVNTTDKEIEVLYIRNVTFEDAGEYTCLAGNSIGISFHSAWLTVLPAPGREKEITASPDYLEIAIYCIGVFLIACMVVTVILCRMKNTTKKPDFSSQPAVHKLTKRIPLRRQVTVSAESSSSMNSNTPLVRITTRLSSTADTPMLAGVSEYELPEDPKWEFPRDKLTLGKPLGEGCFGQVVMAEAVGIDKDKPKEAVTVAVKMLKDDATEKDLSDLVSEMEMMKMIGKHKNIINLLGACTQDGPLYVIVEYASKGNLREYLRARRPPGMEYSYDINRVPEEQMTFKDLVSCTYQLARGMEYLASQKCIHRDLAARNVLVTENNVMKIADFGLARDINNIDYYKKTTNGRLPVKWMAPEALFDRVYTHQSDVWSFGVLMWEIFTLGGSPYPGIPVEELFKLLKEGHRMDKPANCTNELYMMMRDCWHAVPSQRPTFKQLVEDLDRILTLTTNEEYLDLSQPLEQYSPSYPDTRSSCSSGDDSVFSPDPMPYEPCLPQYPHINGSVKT
Procedure details: Transcreener Kinase Assay of FGFR2
Format: biochemical
Condition description: read-out: FGFR2 (FP) IC50
Please express pIC50 as -log10 of the molar concentration.

[[record]]
compound = "CONC(=O)c1cc(COc2cnc(Nc3cnn(C)c3)nc2)c(Cl)c(OC)c1 [Compound 185]"
readout_number = 8.52


Problem: API: value(readout=pIC50, system=Recombinant human FGFR2 (Homo sapiens, UniProt P21802)) for record CONC(=O)c1cc(CCc2cnc(Nc3ccc(OCCN4CCCC4)cc3)nc2)cc(OC)c1 [Compound 43]
Solution: 8.00

Problem: Repeat with CNC(=O)c1cc(CCc2cnc(Nc3ccc(OC)nc3)nc2)c(F)c(OC)c1 [Compound 30]
Solution: 8.00

Problem: What do you have for CCN1CC(n2cc(Nc3ncc(CCc4cc(C(=O)NC)cc(OC)c4F)cn3)cn2)C1 [Compound 167] ?
Solution: 8.00

Problem: One more compound: CNC(=O)c1cc(CCc2cnc(Nc3ccc(N4CCOCC4)cc3)nc2)c(Cl)c(OC)c1 [Compound 85]
Solution: 8.05

Problem: For CNC(=O)c1cc(CCc2cnc(Nc3cnn([C@@H]4CCOC4)c3)nc2)c(F)c(OC)c1 [Compound 123] then?
Solution: 8.30

Problem: Same again, this time with CCN1CCN(c2ccc(Nc3ncc(CCc4cc(C(=O)NC5CC5)cc(OC)c4F)cn3)cc2)CC1 [Compound 57]
Solution: 8.05

Problem: Another compound to look at: CNC(=O)c1cc(COc2cnc(Nc3ccc(N4C[C@@H](C)N[C@@H](C)C4)c(F)c3)nc2)c(Cl)c(OC)c1 [Compound 220]
Solution: 8.40
